# Test system: 4T1 cells
# Measurement Notes: RT-qPCR mRNA expression of CSC related markers in encapsulated cells
# Type: cell-based, mouse
# Experimental Context: 4T1 in PEGDA gel with peptide, 9 days
Value Type: CD44 mRNA marker expression

RLVSYNGIIFFLK [dis CD44BP, CD44BP dissolved in the gel and in the culture medium] :: high expressions
VLFGFLKIYSRIN [conj s-CD44BP, reference compound] :: high expressions
